# subject.of.test: T1, membrane-bound Torpedo californica nicotinic acetylcholine receptor (Torpedo californica)
# T1 construct: also called T. californica nAChR; Torpedo nAChR
# assay: radioligand binding
# cond: one partner purified
Positions of bridges follow the written chain, without caps; N, C: chain ends. No end group written: not given here.
property.label: IC50
Form field: result (number plus unit)

GET /values?readout=IC50&item= CKMVRHQRSPYEVVRRMC (disulfide 1-18)
7.4 µM
